Sourced from patent US4183931A

- assay.method.text: Neuropharmacological Profile (NPP): general CNS observational screen (depression, righting reflex, ataxia)
- setup.conditions: at 100 mg/kg, i.p., mice, score 0-8
What Ataxia was measured for each of the following?
Answers are plain numbers.

A selection of reference data follows.
| molecule | Ataxia |
| --- | --- |
| O=C(Cc1nc2ccccc2c(=O)n1-c1ccccc1Cl)c1ccncc1 | 6 |
| Cc1nc2ccccc2c(=O)n1-c1ccccc1 [phenyl H, 2-methyl-3-phenyl-4(3H)-quinazolinone, reference compound] | 8 |
| Cc1ccc(-n2c(CC(=O)C(F)(F)F)nc3ccccc3c2=O)cc1 | 2 |

Give Ataxia for all molecules that follow.
1. Cc1ccccc1-n1c(CC(=O)c2cccnc2)nc2ccccc2c1=O
2. Cc1ccc(-n2c(C)nc3ccccc3c2=O)cc1 [p-tolyl H, 2-methyl-3-p-tolyl-4(3H)-quinazolinone, reference compound]
3. Cc1ccccc1-n1c(CC(=O)C(F)(F)F)nc2ccccc2c1=O

[8, 8, 2]

###

For each record, write down the corresponding LD50 at 48 h.
- assay.method.text: NPP lethality (estimated LD50)
- setup.conditions: mouse, in vivo, ip
Numbers only, in mg/kg.

Recorded LD50 at 48 h, per entry:
| compound | assay.readout | measured |
| --- | --- | --- |
| Cc1ccc(-n2c(CC(=O)C(F)(F)F)nc3ccccc3c2=O)cc1 [IVi] | LD50 at 48 h | 562 |
| Cc1ccccc1-n1c(CC(=O)c2ccc(Cl)cc2)nc2ccccc2c1=O [IIIh] | LD50 at 48 h | 316 |
| O=C(Cc1nc2ccccc2c(=O)n1-c1ccccc1)C(F)(F)F [IVe] | LD50 at 48 h | 562 |
| Cn1c(CC(=O)c2cccnc2)nc2ccccc2c1=O [IVs] | LD50 at 48 h | 422 |
| O=C(Cc1nc2ccccc2c(=O)n1-c1ccccc1Cl)c1ccncc1 [IVd] | LD50 at 48 h | 237 |
| O=C(Cc1nc2ccccc2c(=O)n1-c1ccccc1)c1cccnc1 [IVg] | LD50 at 48 h | 562 |
| O=C(Cc1nc2ccccc2c(=O)n1-c1ccccc1Cl)c1cccnc1 [IVc] | LD50 at 48 h | 562 |
| O=C(Cc1nc2ccccc2c(=O)n1-c1ccccc1Cl)C(F)(F)F [IVa] | LD50 at 48 h | 178 |
| O=C(Cc1nc2ccccc2c(=O)n1-c1ccccc1Cl)c1ccccn1 [IVb] | LD50 at 48 h | 562 |

Quick check: LD50 at 48 h of Cc1ccc(-n2c(CC(=O)c3cccnc3)nc3ccccc3c2=O)cc1 [IVk] ?
562

###

- assay.method.text: NINCDS Subcutaneous Pentylenetetrazol (Metrazol) Seizure Threshold Test (scMet)
- Type: in vivo, mice
- setup.conditions: Mus musculus, sc; after 0.5 hr; read-out: scMet: dosage level that elicited protection
Exercise: for every item that follows, state its recorded minimal effective dose.
Numbers only, in mg/kg.

Here's what some known entries look like.
| molecule | output.unit | minimal effective dose |
| --- | --- | --- |
| Cc1ccccc1-n1c(CC(=O)c2ccccn2)nc2ccccc2c1=O | mg/kg | 300 |
| O=C(Cc1nc2ccccc2c(=O)n1-c1ccccc1Cl)c1cccnc1 | mg/kg | 300 |
| O=C(Cc1nc2ccccc2c(=O)n1-c1ccccc1)c1ccncc1 | mg/kg | 100 |
| Cc1ccccc1-n1c(C)nc2cc(N)ccc2c1=O [H and 7-amino, reference compound] | mg/kg | 100 |

Please examine the following record next.
Request the reported minimal effective dose associated with Cc1nc2ccccc2c(=O)n1-c1ccccc1Cl [mecloqualone, reference compound]
30
